method summary: Identification of proteins required for the processing of the EWS-FLI1 nascent transcript;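 note: robust z of luciferase light less the median z of siRNAs with the same seed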
assay setup: TC32 Ewing sarcoma NR0B1-luc vs CMV-luc (EWS-FLI1 target promoter against control promoter), 48 h; screened at 20 nM (by protocol)
Procedure: Ewing sarcoma (ES) cells depend on the EWS-FLI1 fusion transcription factor for cell survival. […] Luciferase activity was assessed 48 hours post siRNA-transfection. Twenty microl of serum-free media containing Lipofectamine RNAiMax (0.05 microl) was added to wells containing siRNA (0.8 pmol). […] Luciferase expression was measured using OneGlo (Promega, Madison, WI). […]
Whole data set: some 59,000 sequences, median the read-out near -0.00055, cut for the lowest 2% near -2. The entries come from a sample that favours the lowest values as a whole.
Entries and their measured seed-corrected z-score follow.
metric: seed-corrected z-score

AAUUUAUUCCAAACUUGUC against ME3 | -2.03
UUCACUGUCAGUCCGAUGG against COPZ1 | -3.71
AAAGAUCAAAUCUGAUUCC against MRPL19 | -0.8
AUCCAGUUAAUUCCAGAUG against NUDT1 | -3.9
AUUUGGGACACUCAAAGGG against ZBTB48 | -0.672
UGCUUUGCAAUGAUCUCUC against HNRNPM | -2.32
UCUCUUUUAGGUGGUUUGG against RNPS1P1 | -2.12
UGUCUGUUGAUGGCCAAGC against AMELX | 0.157
UCGGCAAUAAUCUCGGCCU against HNRNPA0 | 0.556
UGCUCUAGCACAGUGUUCC against CCDC87 | -2.86
UCAAUUCAGACUGUAAUGC against PTPDC1 | -0.0227
UCCAGUUCCAGAACUAUCU against HES2 | 0.537
UACUACACUAUUCUUCAGG against TADA1 | -0.3
UAGCCUAGGAGAUACAUCG against COPB2 | -3.63
UGGUUUAUCAGUUUCAAUG against ARCN1 | -4.37
UUACUUCAAAACGGUAUCC against ASB17 | -9.19
AAAGUUGCGGAAGCUGAUG against LRP3 | -2.42
ACCCUUAUGAAUUACACCC against PSMD1 | -4.24
AUCGUCCCAGUAAAUGUCC against BEST3 | -0.819
UUUGCUCCCUUCACUCUGC against DVL1 | 0.689
ACAGUUGCAACUUCCAUGC against KCND2 | -2.77
UCGAUGUAGAGGAUGCUGA against GDF7 | -2.35
UUUAGAACUGGUUAUUUUC against DEFB116 | 0.117
ACAAUUUCAAGCUCCUGUC against MAGOHB | -1.58
AACCGUGUAACCAUAGCUC against GABRQ | 0.126
UACACGUACGGGAUAUUUG against HTR3A | -0.067
